inhibition at 1 μM values by entry
- system: hERG (human ether-a-go-go related gene potassium channel, KCNH2) (Homo sapiens)
- Construct: expressed in transfected cells; host or cells: HEK293
- assayText: hERG channel whole-cell patch clamp (Ion Channel Activity Measurement)
- Type: cell-based
- conditionParameters: human, HEK293 cells expressing the human ERG potassium channel, pH 7.4, 1 μM test article, room temperature
Structures can show the parent of a compound that is named as a salt.

| compound | inhibition at 1 μM |
| --- | --- |
| COCCOc1ccc2ccccc2c1Cc1c(OCCN2CCCC2)ccc2ccccc12 | 75 to 100% |
| COc1ccc2ccccc2c1Cc1c(OCC[N+]2(C)CCCC2)ccc2ccccc12 [Compound A129-2, formate] | 25 to 50% |
| COc1cccc(-c2ccncc2)c1Cc1c(O)cccc1-c1ccncc1 | < 25% |
| CN1CCC(COc2ccc3ccccc3c2Cc2c(O)ccc3ccccc23)C1 (centres unmarked) | 75 to 100% |
| CC(C)Oc1ccc2ccccc2c1Cc1c(OCCN2CCCC2)ccc2ccccc12 | 50 to 75% |
| CCOCOc1ccc2ccccc2c1Cc1c(OCCN)ccc2ccccc12 | 75 to 100% |
| Oc1ccc2ccccc2c1Cc1cccc2ccccc12 | < 25% |
| CC(C)Oc1ccc2ccccc2c1Cc1c(OCCN)ccc2ccccc12 | 25 to 50% |
| CCN(CC)CCOc1ccc2ccccc2c1Cc1c(OCc2ccccc2)ccc2ccccc12 | 75 to 100% |
| O=S(=O)(Nc1ccc2ccccc2c1Cc1c(O)ccc2ccccc12)c1ccccc1 | < 25% |
| CCOc1ccc2ccccc2c1Cc1c(OCCN2CCCC2)ccc2ccccc12 | 75 to 100% |
| Oc1c(Cl)cc2ccccc2c1Cc1c(O)c(Cl)cc2ccccc12 | < 25% |
| O=C(Nc1c(O)ccc2ccccc12)c1c(O)ccc2ccccc12 | < 25% |
| CCN(CC)CCOc1c(C)cc2ccccc2c1Cc1c(O)c(C)cc2ccccc12 | < 25% |
| Oc1ccc2ccccc2c1Cn1c(O)nc2ccccc21 | < 25% |
| NC(=O)c1ccc2ccccc2c1Cc1c(C(N)=O)ccc2ccccc12 [Compound A101, 1,1′-methylenebis(2-naphthamide)] | < 25% |
| NC(=O)c1ccc2c(Cc3c(O)ccc4cc(C(N)=O)ccc34)c(O)ccc2c1 | < 25% |

----------
- system: Iks potassium channel (KCNQ1/KCNE1) (Homo sapiens, UniProt P51787)
- Construct: expressed in transfected cells; host or cells: CHO
- assayText: Iks channel whole-cell patch clamp (Ion Channel Activity Measurement)
- Format: cell-based
- conditionParameters: human, CHO cells stably expressing Iks channel (KCNQ1 and KCNE1), pH 7.4, 1 μM test article, room temperature
inhibition at 5 min, 1 μM values by entry

| sampleSmiles | inhibition at 5 min, 1 μM |
| --- | --- |
| CCN(CC)CCOc1ccc2ccccc2c1Nc1c(OC)ccc2ccccc12 | < 25% |
| Oc1ccc2ccccc2c1Cc1c(OCCN2CCCC2)ccc2ccccc12 | 25 to 50% |
| Oc1ccccc1Cc1ccccc1O | < 25% |
| Oc1ccc2ccccc2c1Cc1c(O)ccc2ccccc12 | 50 to 75% |
| CN(c1c(O)ccc2ccccc12)c1c(O)ccc2ccccc12 | 25 to 50% |
| O=S(=O)(Nc1ccc2ccccc2c1Cc1c(O)ccc2ccccc12)c1ccccc1 | 75 to 100% |
| CCN(CC)CCOc1ccc2ccccc2c1Sc1c(OC)ccc2ccccc12 | < 25% |
| [O-][S+](c1c(O)ccc2ccccc12)c1c(O)ccc2ccccc12 | < 25% |

----------
- system: hERG (human ether-a-go-go related gene potassium channel, KCNH2) (Homo sapiens, UniProt Q12809)
- Construct: expressed in transfected cells; host or cells: HEK293
- Sequence (Q12809 whole entry): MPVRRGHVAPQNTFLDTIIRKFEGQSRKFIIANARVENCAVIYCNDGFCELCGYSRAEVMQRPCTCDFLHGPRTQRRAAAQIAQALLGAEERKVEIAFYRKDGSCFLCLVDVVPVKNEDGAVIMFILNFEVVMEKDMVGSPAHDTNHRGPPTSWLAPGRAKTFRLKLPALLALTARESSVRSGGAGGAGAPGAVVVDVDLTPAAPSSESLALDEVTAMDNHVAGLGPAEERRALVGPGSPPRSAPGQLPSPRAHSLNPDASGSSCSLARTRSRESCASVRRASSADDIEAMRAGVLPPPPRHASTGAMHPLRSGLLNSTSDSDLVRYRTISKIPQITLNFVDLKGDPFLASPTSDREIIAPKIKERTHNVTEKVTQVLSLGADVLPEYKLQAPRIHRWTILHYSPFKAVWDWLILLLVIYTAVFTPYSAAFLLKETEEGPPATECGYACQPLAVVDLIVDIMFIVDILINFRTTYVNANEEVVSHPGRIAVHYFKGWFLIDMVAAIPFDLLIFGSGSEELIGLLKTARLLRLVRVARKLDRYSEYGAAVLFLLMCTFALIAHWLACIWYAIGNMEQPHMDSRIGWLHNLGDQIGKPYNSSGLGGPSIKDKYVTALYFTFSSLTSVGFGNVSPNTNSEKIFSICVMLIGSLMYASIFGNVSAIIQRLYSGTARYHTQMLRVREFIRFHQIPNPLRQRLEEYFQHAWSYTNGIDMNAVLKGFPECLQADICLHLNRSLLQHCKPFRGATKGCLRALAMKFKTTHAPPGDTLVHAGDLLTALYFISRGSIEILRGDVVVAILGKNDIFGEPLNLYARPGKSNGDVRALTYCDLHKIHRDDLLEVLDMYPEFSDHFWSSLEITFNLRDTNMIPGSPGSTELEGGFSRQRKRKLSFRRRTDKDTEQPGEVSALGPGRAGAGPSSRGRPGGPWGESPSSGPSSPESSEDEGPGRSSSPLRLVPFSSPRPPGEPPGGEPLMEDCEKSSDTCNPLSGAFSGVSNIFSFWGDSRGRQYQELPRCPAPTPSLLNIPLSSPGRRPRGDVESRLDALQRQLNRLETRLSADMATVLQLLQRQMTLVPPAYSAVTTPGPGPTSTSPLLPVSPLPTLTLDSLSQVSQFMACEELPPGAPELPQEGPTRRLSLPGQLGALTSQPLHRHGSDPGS
- assayText: hERG channel whole-cell patch clamp (Ion Channel Activity Measurement)
- Type: cell-based
- conditionParameters: human, HEK293 cells expressing the human ERG potassium channel, pH 7.4, 10 μM test article, room temperature

| molecule | inhibition at 10 μM |
| --- | --- |
| Oc1ccc2ccccc2c1Cc1c(O)ncc2ccccc12 [Compound A027] | < 25% |
| CCN(CC)CCOc1ccc2ccccc2c1Nc1c(OC)ccc2ccccc12 [Compound A111-I-1] | 75 to 100% |
| CC(C)c1cc2ccccc2c(Cc2c(O)c(C(C)C)cc3ccccc23)c1O [Compound A081] | 50 to 75% |
| Oc1cccc(-c2cccnc2)c1Cc1c(O)cccc1-c1cccnc1 [Compound A117] | < 25% |
| Cc1cc2ccccc2c(O)c1Cc1c(C)cc2ccccc2c1O [Compound A035] | 50 to 75% |
| Oc1c(Cl)cc2ccccc2c1Cc1c(O)c(Cl)cc2ccccc12 [Compound A046] | < 25% |
| CCN(CC)CCNC(=O)c1ccc2ccccc2c1Cc1c(OC)ccc2ccccc12 [Compound A238] | 75 to 100% |
| CCN(CC)CCOc1ccc2nccnc2c1Cc1c(O)ccc2ccccc12 [Compound A168] | < 25% |
| Nc1cc(Cc2c(N)ccc3ccccc23)c2ccccc2c1 [Compound A022-2] | 75 to 100% |

----------
- system: CaV1.2 (L-type voltage-dependent calcium channel; CACNA1C, CACNB2, CACNA2D1) (Homo sapiens, UniProt Q13936)
- Construct: expressed in transfected cells; host or cells: CHO
- Sequence (Q13936 1-2138 isoform Q13936-12): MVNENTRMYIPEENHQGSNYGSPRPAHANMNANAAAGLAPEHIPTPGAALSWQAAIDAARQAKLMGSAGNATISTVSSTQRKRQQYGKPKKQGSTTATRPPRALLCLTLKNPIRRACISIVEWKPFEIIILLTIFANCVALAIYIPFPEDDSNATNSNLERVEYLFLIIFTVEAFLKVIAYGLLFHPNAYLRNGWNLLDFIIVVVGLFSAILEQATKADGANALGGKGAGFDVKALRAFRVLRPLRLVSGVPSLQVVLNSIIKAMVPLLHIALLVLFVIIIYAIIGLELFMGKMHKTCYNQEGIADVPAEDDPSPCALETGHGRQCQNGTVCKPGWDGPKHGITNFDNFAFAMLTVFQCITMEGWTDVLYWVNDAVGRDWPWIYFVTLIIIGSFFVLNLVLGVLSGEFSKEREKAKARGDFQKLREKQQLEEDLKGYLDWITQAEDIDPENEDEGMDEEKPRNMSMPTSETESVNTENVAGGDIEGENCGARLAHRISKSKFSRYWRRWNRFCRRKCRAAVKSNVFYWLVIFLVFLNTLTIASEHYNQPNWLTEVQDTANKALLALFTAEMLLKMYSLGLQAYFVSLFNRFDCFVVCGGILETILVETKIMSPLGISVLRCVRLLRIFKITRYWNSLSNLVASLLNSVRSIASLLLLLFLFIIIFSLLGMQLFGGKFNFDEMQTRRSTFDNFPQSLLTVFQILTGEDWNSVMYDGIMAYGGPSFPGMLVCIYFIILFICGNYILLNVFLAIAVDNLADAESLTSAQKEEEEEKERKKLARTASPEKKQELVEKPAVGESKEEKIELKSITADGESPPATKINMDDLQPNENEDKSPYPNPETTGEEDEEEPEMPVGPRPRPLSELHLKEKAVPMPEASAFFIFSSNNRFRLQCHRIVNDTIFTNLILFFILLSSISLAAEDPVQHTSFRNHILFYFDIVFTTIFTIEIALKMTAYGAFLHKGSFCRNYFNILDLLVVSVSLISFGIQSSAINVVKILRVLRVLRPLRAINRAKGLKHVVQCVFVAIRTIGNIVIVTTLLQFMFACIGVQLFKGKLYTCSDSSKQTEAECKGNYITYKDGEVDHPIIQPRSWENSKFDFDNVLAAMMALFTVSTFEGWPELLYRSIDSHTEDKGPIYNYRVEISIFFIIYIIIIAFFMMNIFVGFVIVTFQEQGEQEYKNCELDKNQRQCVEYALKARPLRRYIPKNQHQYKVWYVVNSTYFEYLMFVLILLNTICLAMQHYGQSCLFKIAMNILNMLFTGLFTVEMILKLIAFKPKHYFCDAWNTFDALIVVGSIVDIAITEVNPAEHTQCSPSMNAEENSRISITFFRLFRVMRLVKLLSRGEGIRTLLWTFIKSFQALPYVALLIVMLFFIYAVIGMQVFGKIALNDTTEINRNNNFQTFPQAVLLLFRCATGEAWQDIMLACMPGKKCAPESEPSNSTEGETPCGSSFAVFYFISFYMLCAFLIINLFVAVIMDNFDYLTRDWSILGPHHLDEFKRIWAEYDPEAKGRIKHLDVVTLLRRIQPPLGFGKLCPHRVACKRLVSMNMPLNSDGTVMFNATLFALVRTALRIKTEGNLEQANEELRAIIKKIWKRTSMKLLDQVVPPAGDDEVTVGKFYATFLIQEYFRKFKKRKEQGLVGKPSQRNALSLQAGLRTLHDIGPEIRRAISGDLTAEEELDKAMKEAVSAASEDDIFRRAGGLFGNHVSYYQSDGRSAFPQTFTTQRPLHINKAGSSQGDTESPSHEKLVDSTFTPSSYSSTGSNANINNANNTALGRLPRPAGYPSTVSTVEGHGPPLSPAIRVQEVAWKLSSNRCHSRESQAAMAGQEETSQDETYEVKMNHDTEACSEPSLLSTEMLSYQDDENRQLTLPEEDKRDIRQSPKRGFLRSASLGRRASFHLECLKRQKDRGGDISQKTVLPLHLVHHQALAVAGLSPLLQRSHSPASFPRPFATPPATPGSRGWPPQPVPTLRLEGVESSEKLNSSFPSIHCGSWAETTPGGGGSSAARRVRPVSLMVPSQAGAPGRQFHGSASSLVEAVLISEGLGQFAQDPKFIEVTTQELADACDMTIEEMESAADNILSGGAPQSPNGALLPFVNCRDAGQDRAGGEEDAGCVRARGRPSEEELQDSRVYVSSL
- Sequence (Q08289 1-605 isoform Q08289-2 partner): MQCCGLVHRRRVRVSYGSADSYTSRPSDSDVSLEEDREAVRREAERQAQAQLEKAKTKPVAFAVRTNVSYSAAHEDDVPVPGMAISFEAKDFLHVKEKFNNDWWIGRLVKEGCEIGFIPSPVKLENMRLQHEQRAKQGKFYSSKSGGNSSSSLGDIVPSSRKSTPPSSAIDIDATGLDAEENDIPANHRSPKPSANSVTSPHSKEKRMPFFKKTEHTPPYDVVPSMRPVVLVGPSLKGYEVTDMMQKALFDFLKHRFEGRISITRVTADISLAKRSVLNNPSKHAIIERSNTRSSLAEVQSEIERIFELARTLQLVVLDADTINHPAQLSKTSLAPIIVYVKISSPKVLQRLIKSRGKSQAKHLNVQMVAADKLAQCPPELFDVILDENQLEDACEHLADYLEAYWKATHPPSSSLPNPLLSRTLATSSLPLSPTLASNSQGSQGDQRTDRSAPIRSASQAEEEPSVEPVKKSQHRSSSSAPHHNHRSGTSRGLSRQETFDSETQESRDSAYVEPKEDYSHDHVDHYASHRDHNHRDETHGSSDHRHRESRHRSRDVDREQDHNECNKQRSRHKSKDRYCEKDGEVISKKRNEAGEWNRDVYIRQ
- Sequence (P54289 25-1091 isoform P54289-2 partner limits assumed): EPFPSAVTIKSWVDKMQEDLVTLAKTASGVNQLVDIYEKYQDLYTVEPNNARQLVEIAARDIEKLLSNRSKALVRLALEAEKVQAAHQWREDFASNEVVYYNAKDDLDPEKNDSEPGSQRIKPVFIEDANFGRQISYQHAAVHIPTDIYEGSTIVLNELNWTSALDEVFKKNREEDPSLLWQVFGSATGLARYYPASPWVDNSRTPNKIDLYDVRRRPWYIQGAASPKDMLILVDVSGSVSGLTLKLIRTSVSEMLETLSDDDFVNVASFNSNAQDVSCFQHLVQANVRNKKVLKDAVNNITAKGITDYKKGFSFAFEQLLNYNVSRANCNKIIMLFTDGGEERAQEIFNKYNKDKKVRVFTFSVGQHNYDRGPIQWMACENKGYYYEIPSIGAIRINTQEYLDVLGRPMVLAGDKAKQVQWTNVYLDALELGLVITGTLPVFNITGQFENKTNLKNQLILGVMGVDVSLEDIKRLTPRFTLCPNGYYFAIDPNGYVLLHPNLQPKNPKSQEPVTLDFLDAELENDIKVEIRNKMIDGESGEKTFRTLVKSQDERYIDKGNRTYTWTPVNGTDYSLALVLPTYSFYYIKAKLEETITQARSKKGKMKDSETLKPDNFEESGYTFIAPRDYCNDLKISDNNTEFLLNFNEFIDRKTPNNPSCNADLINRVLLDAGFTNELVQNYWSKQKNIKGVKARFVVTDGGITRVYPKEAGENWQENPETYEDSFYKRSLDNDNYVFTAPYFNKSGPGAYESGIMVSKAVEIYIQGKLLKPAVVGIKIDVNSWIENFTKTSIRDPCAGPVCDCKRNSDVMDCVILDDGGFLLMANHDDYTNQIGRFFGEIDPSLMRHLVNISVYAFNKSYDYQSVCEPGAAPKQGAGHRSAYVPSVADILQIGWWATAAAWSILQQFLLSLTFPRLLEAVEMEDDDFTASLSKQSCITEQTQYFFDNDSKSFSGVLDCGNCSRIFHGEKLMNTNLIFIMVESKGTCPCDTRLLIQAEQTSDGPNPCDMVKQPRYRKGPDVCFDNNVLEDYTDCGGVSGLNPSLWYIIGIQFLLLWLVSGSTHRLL
- Sequence (P54289 957-1103 partner limits assumed): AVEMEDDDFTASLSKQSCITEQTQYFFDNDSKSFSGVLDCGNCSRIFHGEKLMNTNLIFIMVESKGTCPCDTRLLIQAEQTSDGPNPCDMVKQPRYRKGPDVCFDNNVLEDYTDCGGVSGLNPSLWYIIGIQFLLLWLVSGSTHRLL
- assayText: CaV1.2 channel whole-cell patch clamp (Ion Channel Activity Measurement)
- Format: cell-based
- conditionParameters: human, pH 7.4, 10 μM test article, room temperature, read-out: CaV 1.2 10 μM (ion-channel inhibition)
inhibition at 5 min, 10 μM values by entry

| compound | inhibition at 5 min, 10 μM |
| --- | --- |
| COc1ccc2ccccc2c1Nc1c([N+](=O)[O-])ccc2ccccc12 | < 25% |
| Oc1c(Cl)cc2ccccc2c1Cc1c(O)c(Cl)cc2ccccc12 | < 25% |
| Cc1ccc(O)c(Cc2c(O)ccc(C)c2C)c1C | 25 to 50% |
| CCN(CC)CCOc1ccc2ccccc2c1N(C)c1c(OC)ccc2ccccc12 [Compound A111-I-2, 2,2,2-trifluoroacetate] | 25 to 50% |
| CC(C)c1cc2ccccc2c(Cc2c(O)c(C(C)C)cc3ccccc23)c1O | 25 to 50% |
| CCN(CC)CCOc1c(C)cc2ccccc2c1Cc1c(O)c(C)cc2ccccc12 | 25 to 50% |
| CCN(CC)CCOc1ccc2nccnc2c1Cc1c(O)ccc2ccccc12 | < 25% |
| Oc1ccc2ccccc2c1Cn1c(O)nc2ccccc21 | 25 to 50% |

----------
- system: hERG (human ether-a-go-go related gene potassium channel, KCNH2) (Homo sapiens)
- Construct: expressed in transfected cells; host or cells: HEK293
- assayText: hERG channel whole-cell patch clamp (Ion Channel Activity Measurement)
- Format: cell-based
- conditionParameters: human, HEK293 cells expressing the human ERG potassium channel, pH 7.4, 10 μM test article, room temperature
Structures can show the parent of a compound that is named as a salt.
parameter: inhibition at 10 μM

| compound | parameter | observedMeasurement |
| --- | --- | --- |
| Oc1c(F)cc2ccccc2c1Cc1c(O)c(F)cc2ccccc12 [Compound A049] | inhibition at 10 μM | 50 to 75% |
| COCCOc1ccc2ccccc2c1Cc1c(OCCN2CCCC2)ccc2ccccc12 [Compound A258] | inhibition at 10 μM | 75 to 100% |
| CCOCOc1ccc2ccccc2c1Cc1c(OCCN2CCCC2)ccc2ccccc12 [Compound A254] | inhibition at 10 μM | 75 to 100% |
| CCN(CC)CCOc1c(C(C)C)cc2ccccc2c1Cc1c(O)c(C(C)C)cc2ccccc12 [Compound A102, hydrochloride Salt] | inhibition at 10 μM | 75 to 100% |
| CC(c1c(O)ccc2ccccc12)c1c(O)ccc2ccccc12 [Compound A012] | inhibition at 10 μM | 25 to 50% |
| CC(C)Oc1ccc2ccccc2c1Cc1c(OCCN2CCCC2)ccc2ccccc12 [Compound A256] | inhibition at 10 μM | 75 to 100% |
| O=C(O)c1ccc2ccccc2c1Cc1c(C(=O)O)ccc2ccccc12 [Compound A100, 1,1′-methylenebis(2-naphthoic acid)] | inhibition at 10 μM | < 25% |
| Oc1ccc2ccccc2c1Cc1c(O)ccc2ccncc12 [Compound A109] | inhibition at 10 μM | 75 to 100% |

----------
inhibition at 5 min, 10 μM values by entry
- system: CaV1.2 (L-type voltage-dependent calcium channel; CACNA1C, CACNB2, CACNA2D1) (Homo sapiens, UniProt Q13936)
- Construct: expressed in transfected cells; host or cells: CHO
- assayText: CaV1.2 channel whole-cell patch clamp (Ion Channel Activity Measurement)
- Assay type: cell-based
- conditionParameters: human, pH 7.4, 10 μM test article, room temperature, read-out: CaV 1.2 10 μM (ion-channel inhibition)

| compound | inhibition at 5 min, 10 μM |
| --- | --- |
| O=C1Cc2ccccc2N1Cc1c(O)ccc2ccccc12 | < 25% |
| Oc1ccc2ccccc2c1Cc1cccc2ccccc12 | 75 to 100% |
| Oc1ccc2ccccc2c1Cc1c(OCCN2CCCCC2)ccc2ccccc12 | 75 to 100% |
| Oc1ccc2ccccc2c1Cn1nc(-c2ccccc2)cc1O | < 25% |
| CC[N+](C)(CC)CCOc1ccc2ccccc2c1Sc1c(OC)ccc2ccccc12 | 75 to 100% |
| O=C(O)c1ccc2ccccc2c1Cc1c(C(=O)O)ccc2ccccc12 | < 25% |
| COc1ccc2ccccc2c1Cc1c(OCCO)ccc2ccccc12 | 75 to 100% |
| Oc1ccc2ccccc2c1Cc1c(OCCN2CCOCC2)ccc2ccccc12 | 75 to 100% |
| CCN(CC)CC(=O)Nc1ccc2ccccc2c1Cc1c(OC)ccc2ccccc12 | < 25% |
| CN1CCC(COc2ccc3ccccc3c2Cc2c(O)ccc3ccccc23)C1 (centres unmarked) | 75 to 100% |
| O=S(=O)(Nc1ccc2ccccc2c1Cc1c(O)ccc2ccccc12)c1ccccc1 | 75 to 100% |
| Oc1ccc2ccccc2c1Cc1c(OCCN2CCCC2)ccc2ccccc12 | 75 to 100% |
| [O-][S+](c1c(O)ccc2ccccc12)c1c(O)ccc2ccccc12 | < 25% |
| CC(C)Oc1ccc2ccccc2c1Cc1c(OCCN2CCCC2)ccc2ccccc12 | 75 to 100% |
| CCN(CC)CCOc1ccc2ccccc2c1Cc1c(OCCN(CC)CC)ccc2ccccc12 | < 25% |
| CCN(CC)CCOc1ccc2ccccc2c1Cc1c(OCc2ccccc2)ccc2ccccc12 | 50 to 75% |
| Cc1cc2ccccc2c(Cc2c(O)ccc3ccccc23)c1O | 25 to 50% |
